Values from PubChem BioAssay (EPA / NIEHS)

read-out: MicroRNA 122 (MIR122), gene 406906; assay: LTEA_HepaRG_MIR122: Life Technologies and Expression Analysis (LTEA) Assay for MicroRNA 122 (MIR122) using HepaRG (AID 2283516); conditions: mRNA level, 48 h; actives raise or lower the signal; also: the transcript read is the microRNA miR-122
Active and inactive are the calls of the source. The calls were made as follows: active = hit-call score of the fitted dose curve at least 0.9, where 1 is the maximum; inactive = score below 0.9.
OBSERVABLE: AC50

Example entries and their recorded answers appear below.
CC1(C)CCC(=Cc2ccc(Cl)cc2)C1(O)Cn1cncn1 (stereo not given)
inactive
CCN(CC)C(=O)C(C)Oc1cccc2ccccc12 (stereo not given)
81.1 µM (active)
CC1(C)C(C=C(Cl)Cl)C1C(=O)OC(C#N)c1cccc(Oc2ccccc2)c1 (stereo not given)
inactive
CCOc1cc(C(C)(C)C)ccc1C1COC(c2c(F)cccc2F)=N1 (stereo not given)
inactive
C=C(C)CN(CC)c1c([N+](=O)[O-])cc(C(F)(F)F)cc1[N+](=O)[O-]
inactive
Nc1cnn(-c2ccccc2)c(=O)c1Cl
inactive

I'd like to know its AC50. The compound in question is COP(=O)(OC)O/C(C)=C/C(=O)N(C)C
inactive

I'd like to know its AC50. The compound in question is CCOP(=S)(OCC)Oc1nc(Cl)n(C(C)C)n1
inactive

I'd like to know its AC50. The compound in question is COc1cc(OC)nc(NC(=O)NS(=O)(=O)c2ncccc2OCC(F)(F)F)n1
inactive

I'd like to know its AC50. The compound in question is CCNC(=O)NC(=O)C(C#N)=NOC
inactive

I'd like to know its AC50. The compound in question is CCOC(=O)C(C)OC(=O)c1cc(Oc2ccc(C(F)(F)F)cc2Cl)ccc1[N+](=O)[O-] (stereo not given)
inactive

---

read-out: Keratin 19 (KRT19), KRT19 (gene 3880); experiment: LTEA_HepaRG_KRT19: Life Technologies and Expression Analysis (LTEA) Assay for Keratin 19 (KRT19) using HepaRG (AID 2283512); conditions: mRNA level, 48 h; actives raise or lower the signal
The source made the active and inactive calls. How the source made its calls: active means hit-call score of the fitted dose curve at least 0.9, where 1 is the maximum; inactive means score below 0.9.
OBSERVABLE: AC50

Example entries and their recorded answers appear below.
COP(=S)(OC)SCn1nnc2ccccc2c1=O
inactive
Cc1ccc(N=CN(C)C=Nc2ccc(C)cc2C)c(C)c1
inactive
CC(C)N1C(=O)c2ccccc2NS1(=O)=O
inactive
CN=C=S
inactive
C=CCOC(=O)C(C)(C)OC(=O)c1cc(-n2c(=O)cc(C(F)(F)F)n(C)c2=O)ccc1Cl
inactive
O=C(O)c1c(Cl)ccc2cc(Cl)cnc12
inactive

I'd like to know its AC50. The compound in question is CCNP(=S)(OC)O/C(C)=C/C(=O)OC(C)C (centres undefined)
50 µM (active)

I'd like to know its AC50. The compound in question is Cc1cc(C)nc(Nc2ccccc2)n1
18.7 µM (active)

I'd like to know its AC50. The compound in question is COCc1cnc(C2=NC(C)(C(C)C)C(=O)N2)c(C(=O)O)c1 (centres undefined)
inactive

I'd like to know its AC50. The compound in question is CC(C)N1C(=O)N(c2ccccc2)CSC1=NC(C)(C)C
50 µM (active)

I'd like to know its AC50. The compound in question is CCOP(=O)(OCC)Oc1nc(Cl)c(Cl)cc1Cl
inactive

I'd like to know its AC50. The compound in question is Nc1c(Cl)c(Cl)nc(C(=O)O)c1Cl
inactive

I'd like to know its AC50. The compound in question is COc1ccc(-c2ccccc2)cc1NNC(=O)OC(C)C
inactive

---

read-out: xenobiotic metabolism (CYP1A1), CYP1A1 (gene 1543); test: CLD_CYP1A1_6hr: CellzDirect (CLD) Gene Expression Assay for xenobiotic metabolism (CYP1A1) at 6 hours (AID 2283661);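 as to AC50: potency for transcript induction above DMSO vehicle baseline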
Results filed as inconclusive are left out. Active and inactive are the calls of the source. The calls were made as follows: active = hit-call score of the fitted dose curve at least 0.9, where 1 is the maximum; inconclusive = response in the unintended direction; inactive = score below 0.9.
OBSERVABLE: AC50

Example entries and their recorded answers appear below.
CC(C)(C)C(=O)C(Oc1ccc(Cl)cc1)n1cncn1 (stereo unspecified)
3.97 µM (active)
CC1(C)C(C=C(Cl)Cl)C1C(=O)OC(C#N)c1cccc(Oc2ccccc2)c1 (stereo unspecified)
2.78 µM (active)
CC1(C)C(C(=O)OC(C#N)c2cccc(Oc3ccccc3)c2)C1(C)C (stereo unspecified)
inactive
CC(C)Oc1cccc(NC(=O)c2ccccc2C(F)(F)F)c1
3 µM (active)

I'd like to know its AC50. The compound in question is CCCN(CC)CC1COC2(CCC(C(C)(C)C)CC2)O1 (stereo unspecified)
inactive

I'd like to know its AC50. The compound in question is Cc1cnc(C2=NC(C)(C(C)C)C(=O)N2)c(C(=O)O)c1 (stereo unspecified)
inactive

---

test: APR_HepG2_CellLoss_72hr: Apredica 72-hour HepG2 Assay for Cell Loss (AID 2282915); conditions: high-content imaging
The source made the active and inactive calls. The calls were made as follows: active = hit-call score of the fitted dose curve at least 0.9, where 1 is the maximum; inactive = score below 0.9.
Answer with one of the outcomes given here: true (1) (active), false (0) (inactive)

CC(C)Nc1nc(Cl)nc(NC(C)C)n1
false (0)
O=C(Nc1ccccc1-c1ccc(Cl)cc1)c1cccnc1Cl
false (0)
CC1(C)C(C=C(Cl)Cl)C1C(=O)OC(C#N)c1cccc(Oc2ccccc2)c1 (stereo not drawn)
false (0)
COC(=O)N(C(=O)N1CO[C@@]2(C(=O)OC)Cc3cc(Cl)ccc3C2=N1)c1ccc(OC(F)(F)F)cc1
false (0)
CNC(=O)N(C)c1nnc(C(C)(C)C)s1
false (0)
O=c1n(Cl)c(=O)n(Cl)c(=O)n1Cl
false (0)
Cc1cnc(C2=NC(C)(C(C)C)C(=O)N2)c(C(=O)O)c1 (stereo not drawn)
false (0)
CNC(=O)Oc1cccc2ccccc12
true (1)

Please indicate how the test categorized Clc1cccc(C(Cl)(Cl)Cl)n1 .
false (0)

Please indicate how the test categorized CN/C(=N\[N+](=O)[O-])NCc1cnc(Cl)s1 .
false (0)

Please indicate how the test categorized CCOc1nc(C(Cl)(Cl)Cl)ns1 .
false (0)

---

assay: ATG_BRE_CIS: Attagene CIS-FACTORIAL HepG2 Assay for human Bone Morphogenetic Protein (BMP) Response Element (BRE) (AID 2282933); details: HepG2 BMP response element reporter, Attagene transcription factor profiling; actives raise or lower the signal
Active and inactive are the calls of the source. How the source made its calls: active means hit-call score of the fitted dose curve at least 0.9, where 1 is the maximum; inactive means score below 0.9.
Answer with one of the outcomes given here: T (active), F (inactive)

CCNC(=O)NC(=O)C(C#N)=NOC
F
O=c1n(Cl)c(=O)n(Cl)c(=O)n1Cl
F
COc1cc(OC)nc(NC(=O)NS(=O)(=O)c2ncccc2OCC(F)(F)F)n1
F
CCCCOCN(C(=O)CCl)c1c(CC)cccc1CC
F
N#Cc1c(Cl)cccc1Cl
F
CCOc1nc(C(Cl)(Cl)Cl)ns1
T
CS(=O)(=O)c1ccc(C(=O)C2C(=O)CCCC2=O)c([N+](=O)[O-])c1
F
C=C(C)CN(CC)c1c([N+](=O)[O-])cc(C(F)(F)F)cc1[N+](=O)[O-]
F

Please indicate how the test categorized O=C(O)c1c(Cl)ccc2cc(Cl)cnc12 .
F

---

read-out: Cyclin D1 (CCND1), CCND1 (gene 595); assay: LTEA_HepaRG_CCND1: Life Technologies and Expression Analysis (LTEA) Assay for Cyclin D1 (CCND1) using HepaRG (AID 2283451); conditions: mRNA level, 48 h; actives raise or lower the signal
Active and inactive are the calls of the source. How the source made its calls: active means hit-call score of the fitted dose curve at least 0.9, where 1 is the maximum; inactive means score below 0.9.
Answer with one of the outcomes given here: active, inactive

CC(C)Nc1nc(Cl)nc(NC(C)C)n1
inactive
O=P(O)(O)CCCl
active
CC(C)N1C(=O)N(c2ccccc2)CSC1=NC(C)(C)C
inactive

Please indicate how the test categorized N#CN=C1SCCN1Cc1ccc(Cl)nc1 .
inactive

Please indicate how the test categorized Cc1cc(C)nc(Nc2ccccc2)n1 .
inactive

Please indicate how the test categorized CNC(=O)N(C)c1nnc(C(C)(C)C)s1 .
inactive

Please indicate how the test categorized COC(=O)NS(=O)(=O)c1ccc(N)cc1 .
inactive

---

experiment: CCTE_Mundy_HCI_iCellGluta_NOG_NeuronCount: CCTE's Neurite Outgrowth Assay in iCellGluta cells for Neuron Count, Mundy Lab (AID 2284340);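 also: cells fixed about 48 h after compound addition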
Inconclusive results are not listed. Calls of active or inactive are those of the source. The calls were made as follows: active = hit-call score of the fitted dose curve at least 0.9, where 1 is the maximum; inconclusive = response in the unintended direction; inactive = score below 0.9.
Answer with one of the outcomes given here: YES = active, NO = inactive

COP(=S)(OC)SCn1nnc2ccccc2c1=O
YES
N#CN=C1SCCN1Cc1ccc(Cl)nc1
NO
CN/C(=N\[N+](=O)[O-])NCc1cnc(Cl)s1
NO
CO/N=C(/C1=NOCCO1)c1ccccc1Oc1ncnc(Oc2ccccc2Cl)c1F
YES
CNC(=O)Oc1cccc2ccccc12
NO
C=C(C)CN(CC)c1c([N+](=O)[O-])cc(C(F)(F)F)cc1[N+](=O)[O-]
YES

Please indicate how the test categorized CS(=O)(=O)c1cc(C(F)(F)F)ccc1C(=O)c1cnoc1C1CC1 .
NO

Please indicate how the test categorized COC(=O)N(C(=O)N1CO[C@@]2(C(=O)OC)Cc3cc(Cl)ccc3C2=N1)c1ccc(OC(F)(F)F)cc1 .
NO

Please indicate how the test categorized CC(C)(C)C(=O)C(Oc1ccc(Cl)cc1)n1cncn1 (stereo not given) .
NO

Please indicate how the test categorized CC1(C)C(C=C(Cl)Cl)C1C(=O)OC(C#N)c1cccc(Oc2ccccc2)c1 (stereo not given) .
NO
